// provenance: ChEMBL document CHEMBL1667813

Assay: Aqueous equilibrium solubility of the compound in water
Format: physicochemical
attributeMeasured: solubility thermodynamic

| structure | observed |
| --- | --- |
| CC(C)C[C@H](N[C@@H](c1ccc(-c2ccc(S(C)(=O)=O)cc2)cc1)C(F)F)C(=O)NC1(C#N)CC1 | < 10 µg/mL |
| CC(C)C[C@H](N[C@@H](c1ccc(-c2ccc(S(C)(=O)=O)cc2)cc1)C(F)(F)F)C(=O)NC1(C#N)CC1 | < 10 µg/mL |

* * *

Overview of reported bioavailability across a group of molecules:
Test: Oral bioavailability in rat at 2 mg/kg, iv
Type: ADME, organism-based
Details: in vivo

| structure | bioavailability (%) |
| --- | --- |
| CC(C)(F)C[C@H](N[C@@H](c1ccc(-c2ccc(S(C)(=O)=O)cc2)cc1)C(F)(F)F)C(=O)NC1(C#N)CC1 | 8 |
| CC(C)(F)C[C@H](N[C@@H](c1ccc(-c2ccc(S(C)(=O)=O)cc2)cc1)C(F)F)C(=O)NC1(C#N)CC1 | 22 |
| CC(C)C[C@H](N[C@@H](c1ccc(-c2ccc(S(C)(=O)=O)cc2)cc1)C(F)F)C(=O)NC1(C#N)CC1 | 100 |
| CC(C)C[C@H](N[C@@H](c1ccc(-c2ccc(S(C)(=O)=O)cc2)cc1)C(F)(F)F)C(=O)NC1(C#N)CC1 | 4 |

* * *

Documented logD across a set of molecules
Experiment: Lipophilicity, log D of the compound
Format: physicochemical
Conditions: octanol/water

| structure | logD |
| --- | --- |
| CC(C)C[C@H](N[C@@H](c1ccc(-c2ccc(S(C)(=O)=O)cc2)cc1)C(F)F)C(=O)NC1(C#N)CC1 | 0.11 |
| CC(C)C[C@H](N[C@@H](c1ccc(-c2ccc(S(C)(=O)=O)cc2)cc1)C(F)(F)F)C(=O)NC1(C#N)CC1 | 3.53 |

* * *

Species on record: Homo sapiens
Assay: Selectivity ratio of IC50 for human cathepsin L to IC50 for human cathepsin K

| compound | Ratio IC50 |
| --- | --- |
| CC(C)C[C@H](N[C@@H](c1ccc(-c2ccc(C(O)C(F)(F)F)cc2)cc1)C(F)(F)F)C(=O)NC1(C#N)CC1 (stereo not given in full) | 506 |
| CC(C)(F)C[C@H](N[C@@H](c1ccc(-c2ccc(S(C)(=O)=O)cc2)cc1)C(F)(F)F)C(=O)NC1(C#N)CC1 | 15000 |
| CC(C)C[C@H](N[C@@H](c1ccc(-c2ccc(S(C)(=O)=O)cc2)cc1)C(F)(F)F)C(=O)NC1(C#N)CC1 | 1390 |
| CC(C)C[C@H](N[C@@H](c1ccc(-c2ccc(C(O)C(F)(F)F)cc2)cc1)C(F)F)C(=O)NC1(C#N)CC1 (stereo not given in full) | 785 |
| CC(C)C[C@H](N[C@@H](c1ccc(-c2ccc(S(C)(=O)=O)cc2)cc1)C(F)F)C(=O)NC1(C#N)CC1 | 894 |
| CC(C)(F)C[C@H](N[C@@H](c1ccc(-c2ccc(C3(C(N)=O)CC3)cc2F)cc1)C(F)F)C(=O)NC1(C#N)CC1 | 12700 |
| CC(C)C[C@H](N[C@@H](c1ccc(-c2ccc(S(C)(=O)=O)cc2)cc1)C(F)F)C(=O)NCC#N | 869 |
| CC(C)C[C@H](N[C@@H](c1ccc(-c2ccc(S(C)(=O)=O)cc2)cc1)C(F)(F)F)C(=O)NCC#N | 1320 |
| CC(C)(F)C[C@H](N[C@@H](c1ccc(-c2ccc(C3(C(N)=O)CC3)cc2F)cc1)C(F)(F)F)C(=O)NC1(C#N)CC1 | 9370 |
| CC(C)(F)C[C@H](N[C@@H](c1ccc(-c2ccc(S(C)(=O)=O)cc2)cc1)C(F)F)C(=O)NC1(C#N)CC1 | 6330 |

* * *

Species on record: Homo sapiens
Test: Selectivity ratio of IC50 for human cathepsin S to IC50 for human cathepsin K
Mark True for Ratio IC50 under 900, False if at or over.

| compound | className |
| --- | --- |
| CC(C)(F)C[C@H](N[C@@H](c1ccc(-c2ccc(C3(C(N)=O)CC3)cc2F)cc1)C(F)(F)F)C(=O)NC1(C#N)CC1 | False |
| CC(C)(F)C[C@H](N[C@@H](c1ccc(-c2ccc(S(C)(=O)=O)cc2)cc1)C(F)F)C(=O)NC1(C#N)CC1 | True |
| CC(C)C[C@H](N[C@@H](c1ccc(-c2ccc(S(C)(=O)=O)cc2)cc1)C(F)F)C(=O)NCC#N | False |
| CC(C)(F)C[C@H](N[C@@H](c1ccc(-c2ccc(C3(C(N)=O)CC3)cc2F)cc1)C(F)F)C(=O)NC1(C#N)CC1 | False |
| CC(C)C[C@H](N[C@@H](c1ccc(-c2ccc(S(C)(=O)=O)cc2)cc1)C(F)F)C(=O)NC1(C#N)CC1 | False |
| CC(C)(F)C[C@H](N[C@@H](c1ccc(-c2ccc(S(C)(=O)=O)cc2)cc1)C(F)(F)F)C(=O)NC1(C#N)CC1 | True |
| CC(C)C[C@H](N[C@@H](c1ccc(-c2ccc(C(O)C(F)(F)F)cc2)cc1)C(F)(F)F)C(=O)NC1(C#N)CC1 (stereo not given in full) | True |
| CC(C)C[C@H](N[C@@H](c1ccc(-c2ccc(S(C)(=O)=O)cc2)cc1)C(F)(F)F)C(=O)NC1(C#N)CC1 | True |
| CC(C)C[C@H](N[C@@H](c1ccc(-c2ccc(C(O)C(F)(F)F)cc2)cc1)C(F)F)C(=O)NC1(C#N)CC1 (stereo not given in full) | True |

* * *

pIC50: −log10 of the molar value.
Quick note: these are pIC50 numbers for system: Cathepsin K (Homo sapiens, UniProt P43235)

| compound | pIC50 |
| --- | --- |
| CC(C)(F)C[C@H](N[C@@H](c1ccc(-c2ccc(C3(C(N)=O)CC3)cc2F)cc1)C(F)(F)F)C(=O)NC1(C#N)CC1 | 9.52 |
| CC(C)C[C@H](N[C@@H](c1ccc(-c2ccc(S(C)(=O)=O)cc2)cc1)C(F)(F)F)C(=O)NCC#N | 9.70 |
| CC(C)C[C@H](N[C@@H](c1ccc(-c2ccc(C(O)C(F)(F)F)cc2)cc1)C(F)(F)F)C(=O)NC1(C#N)CC1 (stereo partly specified) | 8.80 |
| CC(C)C[C@H](N[C@@H](c1ccc(-c2ccc(C(O)C(F)(F)F)cc2)cc1)C(F)F)C(=O)NC1(C#N)CC1 (stereo partly specified) | 8.72 |
| CC(C)C[C@H](N[C@@H](c1ccc(-c2ccc(S(C)(=O)=O)cc2)cc1)C(F)F)C(=O)NC1(C#N)CC1 | 9.10 |
| CC(C)(F)C[C@H](N[C@@H](c1ccc(-c2ccc(S(C)(=O)=O)cc2)cc1)C(F)(F)F)C(=O)NC1(C#N)CC1 | 9.70 |

* * *

Organism: Homo sapiens
Test: Selectivity ratio of IC50 for human cathepsin B to IC50 for human cathepsin K
Listing of entries alongside the reported Ratio IC50.
attributeMeasured: Ratio IC50

| molecule | qualifierSign | observed |
| --- | --- | --- |
| CC(C)C[C@H](N[C@@H](c1ccc(-c2ccc(C(O)C(F)(F)F)cc2)cc1)C(F)F)C(=O)NC1(C#N)CC1 (stereo not given in full) | > | 5180 |
| CC(C)C[C@H](N[C@@H](c1ccc(-c2ccc(S(C)(=O)=O)cc2)cc1)C(F)(F)F)C(=O)NCC#N | = | 26200 |
| CC(C)(F)C[C@H](N[C@@H](c1ccc(-c2ccc(C3(C(N)=O)CC3)cc2F)cc1)C(F)F)C(=O)NC1(C#N)CC1 | = | 7230 |
| CC(C)(F)C[C@H](N[C@@H](c1ccc(-c2ccc(S(C)(=O)=O)cc2)cc1)C(F)F)C(=O)NC1(C#N)CC1 | = | 2300 |
| CC(C)(F)C[C@H](N[C@@H](c1ccc(-c2ccc(C3(C(N)=O)CC3)cc2F)cc1)C(F)(F)F)C(=O)NC1(C#N)CC1 | = | 4400 |
| CC(C)(F)C[C@H](N[C@@H](c1ccc(-c2ccc(S(C)(=O)=O)cc2)cc1)C(F)(F)F)C(=O)NC1(C#N)CC1 | = | 5170 |
| CC(C)C[C@H](N[C@@H](c1ccc(-c2ccc(S(C)(=O)=O)cc2)cc1)C(F)(F)F)C(=O)NC1(C#N)CC1 | = | 23600 |
| CC(C)C[C@H](N[C@@H](c1ccc(-c2ccc(C(O)C(F)(F)F)cc2)cc1)C(F)(F)F)C(=O)NC1(C#N)CC1 (stereo not given in full) | = | 5980 |
| CC(C)C[C@H](N[C@@H](c1ccc(-c2ccc(S(C)(=O)=O)cc2)cc1)C(F)F)C(=O)NC1(C#N)CC1 | > | 11900 |
| CC(C)C[C@H](N[C@@H](c1ccc(-c2ccc(S(C)(=O)=O)cc2)cc1)C(F)F)C(=O)NCC#N | > | 32600 |
